Each recorded value in this set is attributed to patent US20250026752A1.

assayed.target: human mAChR M4 (Homo sapiens, UniProt P08173)
Construct: expressed in transfected cells; host or cells: CHO-K1 (ATCC), stably expressing hM4 and Gqi5
assay.protocol: mAChR M4 cell-based functional assay: calcium flux (Fluo-4, FDSS), positive allosteric modulator activity on the EC20 acetylcholine response, hM4-Gqi5 CHO-K1 cells
experimental.context: CHO-K1, human M4; % ACh maximum at 30 μM
measured.parameter: Emax at 30 µM (%)
Please reply with the bare figure in % and do not write the unit itself.

molecule | assayed.target | measured.parameter | meas.value
Cc1nc(N2CCc3ncc(-c4ccc(C(F)(F)F)nc4)cc3C2)c2cc(Cl)ccc2n1 [Compound 4] | human mAChR M4 (Homo sapiens, UniProt P08173) | Emax at 30 µM | 57
Cc1nc(N2CCc3ncc(-c4ccnn4C)cc3C2)c2cc(Cl)ccc2n1 [Compound 45] | human mAChR M4 (Homo sapiens, UniProt P08173) | Emax at 30 µM | 98
Fc1cc2c(N3CCc4ncc(Nc5cccnc5F)cc4C3)nc(Cl)nc2cc1Cl [Compound 110] | human mAChR M4 (Homo sapiens, UniProt P08173) | Emax at 30 µM | 76
COc1ccc2nc(C)nc(N3CCc4ncc(-c5ccccc5C)cc4C3)c2c1 [Compound 314] | human mAChR M4 (Homo sapiens, UniProt P08173) | Emax at 30 µM | 77
Cc1nc(N2CCc3ncc(-c4ccc(C5CC5)nc4)cc3C2)c2cc(F)ccc2n1 [Compound 25] | human mAChR M4 (Homo sapiens, UniProt P08173) | Emax at 30 µM | 96
Fc1ccc2ncnc(N3CCc4ncc(Nc5cccnc5F)cc4C3)c2c1 [Compound 82] | human mAChR M4 (Homo sapiens, UniProt P08173) | Emax at 30 µM | 104
Cn1nccc1Nc1cnc2c(c1)CN(c1nc(N3CCCC3)nc3ccc(F)cc13)CC2 [Compound 210] | human mAChR M4 (Homo sapiens, UniProt P08173) | Emax at 30 µM | 81

Can you look up the measured Emax at 30 µM of COc1ccc2ncnc(N3CCc4ncc(Nc5ccnn5C)cc4C3)c2c1 [Compound 80] for me?
98

---

assayed.target: human mAChR M4 (Homo sapiens)
Construct: expressed in transfected cells; host or cells: CHO-K1 (ATCC), stably expressing hM4 and Gqi5
Sequence (P08173 1-479): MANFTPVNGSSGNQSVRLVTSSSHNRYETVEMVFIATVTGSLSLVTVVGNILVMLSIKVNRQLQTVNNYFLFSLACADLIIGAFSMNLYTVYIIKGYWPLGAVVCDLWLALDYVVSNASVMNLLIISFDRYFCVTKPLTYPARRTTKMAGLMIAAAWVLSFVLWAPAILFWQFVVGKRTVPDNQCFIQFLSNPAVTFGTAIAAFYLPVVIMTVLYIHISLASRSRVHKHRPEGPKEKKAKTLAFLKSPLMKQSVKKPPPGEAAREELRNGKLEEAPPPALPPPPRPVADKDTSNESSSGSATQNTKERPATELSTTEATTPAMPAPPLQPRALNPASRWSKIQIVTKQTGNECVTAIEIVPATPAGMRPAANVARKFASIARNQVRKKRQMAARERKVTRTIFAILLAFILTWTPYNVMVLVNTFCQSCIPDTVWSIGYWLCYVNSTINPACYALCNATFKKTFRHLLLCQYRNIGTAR
assay.protocol: mAChR M4 cell-based functional assay: calcium flux (Fluo-4, FDSS), positive allosteric modulator activity on the EC20 acetylcholine response, hM4-Gqi5 CHO-K1 cells
experimental.context: human M4; PAM activity on EC20 acetylcholine response, calcium flux; read-out: Human M4 EC50
hey, just use 1.0 if measured EC50 is less than 200 nM, otherwise 0.0

Some entries whose results are on file:
molecule | assayed.target | class.assignment
c1cnc2nc(NC3CC3)nc(N3CCc4ncc(N5CCCn6nccc65)cc4C3)c2c1 | human mAChR M4 (Homo sapiens) | 0.0
Cc1cn(C)nc1-c1cnc2c(c1)CN(c1nc(C(F)(F)F)nc3ccc(F)cc13)CC2 | human mAChR M4 (Homo sapiens) | 0.0

Bench note: check whether Cc1nc(N2CCc3ncc(-c4cc(F)ccc4C)cc3C2)c2cc(F)ccc2n1 shows EC50 below 200 nM
0.0

Okay, and COc1ccc2ncnc(N3CCc4ncc(N5CCCn6nccc65)cc4C3)c2c1 ?
1.0

Okay, and Cc1ccc2nc(C)nc(N3CCc4ncc(-c5cnc(C)s5)cc4C3)c2c1 ?
0.0

Okay, and Cc1nc(N2CCc3ncc(N4CCN(C)C(=O)C4)cc3C2)c2cc(Cl)ccc2n1 ?
0.0

Okay, and Cc1ccc2nc(N3CCCC3)nc(N3CCc4ncc(C(F)(F)F)cc4C3)c2c1 ?
0.0

Okay, and Cc1nc(N2CCc3ncc(-c4cnn(C)c4)cc3C2)c2cc(F)ccc2n1 ?
1.0

Okay, and Fc1ccc2ncnc(N3CCc4ncc(Nc5cccnc5F)cc4C3)c2c1 ?
1.0

---

assayed.target: human mAChR M4 (Homo sapiens)
Construct: expressed in transfected cells; host or cells: CHO-K1 (ATCC), stably expressing hM4 and Gqi5
assay.protocol: mAChR M4 cell-based functional assay: calcium flux (Fluo-4, FDSS), positive allosteric modulator activity on the EC20 acetylcholine response, hM4-Gqi5 CHO-K1 cells
experimental.context: CHO-K1, human M4; % ACh maximum at 30 μM
Listing of entries alongside the reported Emax at 30 µM.
Please reply with the bare figure in % and do not write the unit itself.

compound | measured.parameter | unit.name | meas.value
Cc1nc(N2CCc3ncc(C(C)(O)C(F)(F)F)cc3C2)c2cc(Cl)ccc2n1 (stereo not drawn) | Emax at 30 µM | % | 97
Fc1ccc2ncnc(N3CCc4ncc(N5CCO[C@H](c6ccccc6)C5)cc4C3)c2c1 | Emax at 30 µM | % | 81
Cc1ccc2nc(NCC(C)(C)O)nc(N3CCc4ncc(C(F)(F)F)cc4C3)c2c1 | Emax at 30 µM | % | 76
C[C@H]1CN(c2ncnc3cc(F)c(F)cc23)Cc2cc(N3CCOCC3)cnc21 | Emax at 30 µM | % | 79
Cc1noc(C)c1-c1cnc2c(c1)CN(c1ncnc3ccc(Cl)cc13)CC2 | Emax at 30 µM | % | 86

Can you look up the measured Emax at 30 µM of Cn1nc(C(F)(F)F)cc1-c1cnc2c(c1)CN(c1ncnc3ccc(F)cc13)CC2 for me?
81

Okay, and [2H]C1([2H])N(c2cnc3c(c2)CN(c2ncnc4ccc(F)cc24)CC3)c2ccnn2C([2H])([2H])C1([2H])[2H] ?
104

Okay, and Fc1ccc2nc(N3CCCC3)nc(N3CCc4ncc(C(F)(F)F)cc4C3)c2c1 ?
95

Okay, and Cc1nc(N2CCc3ncc(C(F)(F)F)cc3C2)c2cc(Br)ccc2n1 ?
86

Okay, and Cn1nccc1Nc1cnc2c(c1)CN(c1nc(NCC(C)(C)O)nc3ccc(F)cc13)CC2 ?
90

Okay, and Fc1ccc2ncnc(N3CCc4ncc(C(F)(F)F)cc4C3)c2c1 ?
89

Okay, and Cc1nc(N2CCc3ncc(C4CC4)cc3C2)c2cc(C(F)(F)F)ccc2n1 ?
77

---

Listing of entries alongside the reported pEC50.
assayed.target: human mAChR M4 (Homo sapiens, UniProt P08173)
Construct: expressed in transfected cells; host or cells: CHO-K1 (ATCC), stably expressing hM4 and Gqi5
assay.protocol: mAChR M4 cell-based functional assay: calcium flux (Fluo-4, FDSS), positive allosteric modulator activity on the EC20 acetylcholine response, hM4-Gqi5 CHO-K1 cells
experimental.context: human M4; PAM activity on EC20 acetylcholine response, calcium flux; read-out: Human M4 EC50
# pEC50 is unitless: minus log10 of the molar concentration; print number only

molecule | meas.value
COc1ccc2nc(C)nc(N3CCc4ncc(C(F)(F)F)cc4C3)c2c1 | 6.29
Fc1ccc2nc(NC3CCOC3)nc(N3CCc4ncc(C(F)(F)F)cc4C3)c2c1 (centres unmarked) | 6.52
Cn1cc(-c2cnc3c(c2)CN(c2nc(Cl)nc4cc(Cl)c(F)cc24)CC3)cn1 | 6.39
FC(F)(F)c1ccc(-c2cnc3c(c2)CN(c2ncnc4ccc(Cl)cc24)CC3)cn1 | 6.33

Let's switch to this molecule now.
Return pEC50 measured with human mAChR M4 (Homo sapiens, UniProt P08173) given this molecule: Clc1ccc2nc(C3CC3)nc(N3CCc4ncc(N5CCCn6nccc65)cc4C3)c2c1
6.39

---

assayed.target: human mAChR M4 (Homo sapiens)
Construct: expressed in transfected cells; host or cells: CHO-K1 (ATCC), stably expressing hM4 and Gqi5
assay.protocol: mAChR M4 cell-based functional assay: calcium flux (Fluo-4, FDSS), positive allosteric modulator activity on the EC20 acetylcholine response, hM4-Gqi5 CHO-K1 cells
experimental.context: human M4; PAM activity on EC20 acetylcholine response, calcium flux; read-out: Human M4 EC50
pEC50: −log10 of the molar value.
Param threshold (7) applies to pEC50; output MET when value >= threshold, NOT MET when value < threshold.

molecule | class.assignment
CC(O)(c1cnc2c(c1)CN(c1ncnc3cc(F)c(F)cc13)CC2)C(F)(F)F (stereo not drawn) | NOT MET
c1cnc2nc(N3CCOCC3)nc(N3CCc4ncc(N5CCCn6nccc65)cc4C3)c2c1 | NOT MET

Tell me whether pEC50 is at least 7 here: Cc1nn(C)cc1-c1cnc2c(c1)CN(c1nc(Cl)nc3ccc(F)cc13)CC2
NOT MET

Okay, and Cc1nc(N2CCc3ncc(-c4ccnn4C4COC4)cc3C2)c2cc(Cl)ccc2n1 ?
NOT MET

Okay, and Cc1ccc2nc(Nc3ccnn3C)nc(N3CCc4ncc(Nc5ccnn5C)cc4C3)c2c1 ?
NOT MET

Okay, and Cc1nc(N2CCc3ncc(-c4ccc(C5CC5)nc4)cc3C2)c2cc(Cl)ccc2n1 ?
NOT MET

Okay, and Cc1nc(N2CCc3ncc(C(F)(F)F)cc3C2)c2cc(F)c(C)cc2n1 ?
NOT MET

Okay, and CC1(C)CN(c2cnc3c(c2)CN(c2ncnc4ccc(F)cc24)CC3)CCO1 ?
MET

Okay, and Fc1ccc2nc(Oc3ccccc3F)nc(N3CCc4ncc(C(F)(F)F)cc4C3)c2c1 ?
NOT MET
